B1: ZNF511 (parent)
chain: YEHHYHTLHGNVCSFCKRAFPSGH

- Variants of: B1
- test-description: protein stability index of a GFP-peptide fusion (GPS, HEK-293T) (PSI 1-6); higher = more stable;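 further: lentivirally expressed fusions sorted by FACS into six bins by GFP to DsRed ratio, PSI derived from sequencing read proportions per bin multiplied by bin number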
- condition-notes: c terminus: a fixed tail appended
metric: protein stability index
Lab note: record just the number, no unit beside it.

Example entries and their recorded answers appear below.
Inquiry: I'd like to know its protein stability index. The variant in question is K17I
Reply text: 1.84

Inquiry: Ok, now V12Y
Reply text: 2.13

Further cases:
Inquiry: I'd like to know its protein stability index. The variant in question is C13W
Reply text: 1.52

Inquiry: Ok, now E2R
Reply text: 1.8

Inquiry: Ok, now H3C
Reply text: 3.57

Inquiry: Ok, now G23A
Reply text: 2.1

Inquiry: Ok, now Y5V
Reply text: 3.47

Inquiry: Ok, now C16D
Reply text: 2.17

Inquiry: Ok, now C16M
Reply text: 2.01

Inquiry: Ok, now H4R
Reply text: 1.73

Inquiry: Ok, now F20K
Reply text: 2.64
